- Tested on: wild-type HIV-1 (HIV-1LAI) in H9 cells (non-permissive)
- Test Description: microbe, parasite or virus in culture
- Type: cell-based
- Condition Notes: Human immunodeficiency virus 1, H9, read-out: Antiviral activity (IC50 μM) H9 cells, Table 5; wild-type HIV-1, non-permissive H9 cells
Measurement Name: IC50

Mol Smiles	Measurement Name	Measured
COc1ccc(S(=O)(=O)c2ccccc2-c2cn(-c3cc(OC)ccc3OC)nn2)cc1	IC50	> 50 µM
COc1ccc(-n2cc(-c3ccccc3Sc3ccc(C(F)(F)F)cc3)nn2)c(OC)c1	IC50	1.1 µM
COc1ccc(S(=O)(=O)c2ccccc2-c2cn(-c3ccccc3OC)nn2)cc1	IC50	4.3 µM
COc1cccc(-n2cc(-c3ccccc3Sc3ccc(C(F)(F)F)cc3)nn2)c1OC	IC50	1.9 µM
COc1ccccc1-n1cc(-c2ccccc2S(=O)(=O)c2ccc(C(=O)O)cc2)nn1	IC50	8.2 µM
COc1ccc(S(=O)(=O)c2ccccc2-c2cn(-c3c(F)cccc3OC)nn2)cc1	IC50	> 50 µM
COc1ccc(-n2cc(-c3ccccc3S(=O)(=O)c3ccc(C(F)(F)F)cc3)nn2)c(OC)c1	IC50	12 µM
COc1ccc(OC)c(-n2cc(-c3ccccc3Sc3ccc(N)cc3)nn2)c1	IC50	> 50 µM
COc1cccc(OC)c1-n1cc(-c2ccccc2S(=O)(=O)c2ccc(C(=O)O)cc2)nn1	IC50	1.2 µM
COc1cccc(-n2cc(-c3ccccc3S(=O)(=O)c3ccc(N)cc3)nn2)c1OC	IC50	12.4 µM
COC(=O)c1ccc(S(=O)(=O)c2ccccc2-c2cn(-c3ccccc3OC)nn2)cc1	IC50	> 50 µM
COC(=O)c1ccc(Sc2ccccc2-c2cn(-c3ccc(OC)cc3OC)nn2)cc1	IC50	2 µM
COc1ccc(S(=O)(=O)c2ccccc2-c2cn(-c3cccc(OC)c3OC)nn2)cc1	IC50	> 50 µM
COc1cccc(-n2cc(-c3ccccc3S(=O)(=O)c3ccc([N+](=O)[O-])cc3)nn2)c1OC	IC50	> 50 µM
COc1cccc(F)c1-n1cc(-c2ccccc2Sc2ccc(N)cc2)nn1	IC50	> 50 µM
COc1cccc(OC)c1-n1cc(-c2ccccc2Sc2ccc(C(=O)O)cc2)nn1	IC50	1.9 µM
COc1ccc(Sc2ccccc2-c2cn(-c3cc(OC)ccc3OC)nn2)cc1	IC50	15.7 µM

====

- Tested on: wild-type HIV-1 (HIV-1LAI) in H9 cells (non-permissive)
- Test Description: microbe, parasite or virus in culture
- Format: cell-based
- Condition Notes: read-out: Antiviral activity (IC50 μM) H9 Cells; Table 7; wild-type HIV-1, non-permissive H9 cells

Mol Smiles	IC50 (µM)
COc1cccc(-n2cc(-c3ccccc3Sc3ccc(C(=O)O)cc3)nn2)c1OC	4.3

====

Consider the following molecules and their measured IC50 readings.
- System: wild-type HIV-1 (HIV-1LAI) in H9 cells (non-permissive)
- Test Description: microbe, parasite or virus in culture
- Type: cell-based
- Condition Notes: Human immunodeficiency virus 1, H9, read-out: Antiviral activity (IC50 μM) H9 Cells, Table 4; wild-type HIV-1, non-permissive H9 cells
Measurement Name: IC50

Mol Smiles	Measured
COc1ccc(-n2cc(-c3ccccc3S(=O)(=O)c3ccc(C(F)(F)F)cc3)nn2)c(OC)c1	12 µM
COc1cccc(-n2cc(-c3ccccc3Sc3ccc([N+](=O)[O-])cc3)nn2)c1OC	1.1 µM
COc1ccccc1-n1cc(-c2ccccc2Sc2ccc(C(F)(F)F)cc2)nn1	2.6 µM
COc1cccc(F)c1-n1cc(-c2ccccc2Sc2ccc([N+](=O)[O-])cc2)nn1	3.9 µM

====

- System: wild-type HIV-1 (HIV-1LAI) in MT-4 cells (permissive)
- Test Description: Antiviral activity assay: wild-type HIV-1 in permissive MT4 cells, reverse transcriptase activity in culture supernatants
- Type: cell-based
- Condition Notes: Human immunodeficiency virus 1, MT4, Table 3; wild-type HIV-1, permissive MT4 cells; read-out: Antiviral activity (IC50 μM) MT4 cells
Measurement Name: IC50 (µM)

Compound	Value Qualifier	Measured
COc1ccccc1-c1noc(-c2ccccc2Sc2ccc([N+](=O)[O-])cc2)n1 [Compound 1c]	>	50
COc1ccccc1-n1cc(-c2ccccc2Sc2ccc([N+](=O)[O-])cc2)nn1 [Compound 1d]	>	50
COc1ccccc1-c1nnc(-c2ccccc2Sc2ccc([N+](=O)[O-])cc2)o1 [Compound 1b]	=	50
COc1ccccc1NC(=O)c1ccccc1Sc1ccc([N+](=O)[O-])cc1 [RN-18]	>	50
COc1ccccc1-n1nncc1-c1ccccc1Sc1ccc([N+](=O)[O-])cc1 [Compound 1e]	=	25

====

- Test system: wild-type HIV-1 (HIV-1LAI) in H9 cells (non-permissive)
- Test Description: microbe, parasite or virus in culture
- Format: cell-based
- Condition Notes: Human immunodeficiency virus 1, H9, read-out: IC50, anti-HIV-1 activity; non-permissive H9 cells
pIC50: −log10 of the molar value.

Compound	pIC50
COc1ccc(OC)c(-n2cc(-c3ccccc3S(=O)(=O)c3ccc(C(=O)O)cc3)nn2)c1 [Compound 5gy]	6.30
COC(=O)c1ccc(Sc2ccccc2-c2cn(-c3cc(OC)ccc3OC)nn2)cc1 [Compound 5bx]	6.70
COc1ccccc1NC(=O)c1ccccc1Sc1ccc([N+](=O)[O-])cc1 [RN-18]	5.22
COc1ccccc1-n1cc(-c2ccccc2S(=O)(=O)c2ccc(N)cc2)nn1 [Compound 2ey]	6.40

====

- Tested on: wild-type HIV-1 (HIV-1LAI) in MT-4 cells (permissive)
- Test Description: Antiviral activity assay: wild-type HIV-1 in permissive MT4 cells, reverse transcriptase activity in culture supernatants
- Assay type: cell-based
- Condition Notes: Human immunodeficiency virus 1, MT4, text; permissive MT4 cells; read-out: IC50, non-specific antiviral activity in permissive cells
Let's look at some molecules and their measured IC50.
Measurement Name: IC50 (µM)

Mol Smiles	Measurement Name	Readout Unit	Measured
COc1ccccc1-c1nnc(-c2ccccc2Sc2ccc([N+](=O)[O-])cc2)o1	IC50	µM	50
COc1ccccc1-n1nncc1-c1ccccc1Sc1ccc([N+](=O)[O-])cc1	IC50	µM	25

====

- Tested on: wild-type HIV-1 (HIV-1LAI) in H9 cells (non-permissive)
- Test Description: microbe, parasite or virus in culture
- Format: cell-based
- Condition Notes: Human immunodeficiency virus 1, H9, read-out: IC50, anti-HIV-1 activity; non-permissive H9 cells
Binary label based on IC50 with cut-off 7 µM: below gives yes, not below gives no.

Mol Smiles	Target Of Assay	Assigned Category
COc1ccccc1-n1nncc1-c1ccccc1Sc1ccc([N+](=O)[O-])cc1	wild-type HIV-1 (HIV-1LAI) in H9 cells (non-permissive)	no
COc1ccccc1-n1cc(-c2ccccc2Sc2ccc([N+](=O)[O-])cc2)nn1	wild-type HIV-1 (HIV-1LAI) in H9 cells (non-permissive)	yes
COc1ccc(OC)c(-n2cc(-c3ccccc3Sc3ccc([N+](=O)[O-])cc3)nn2)c1	wild-type HIV-1 (HIV-1LAI) in H9 cells (non-permissive)	yes
COc1ccc(-n2cc(-c3ccccc3S(=O)(=O)c3ccc(C(=O)O)cc3)nn2)c(OC)c1	wild-type HIV-1 (HIV-1LAI) in H9 cells (non-permissive)	yes
COc1ccccc1-n1cc(-c2ccccc2S(=O)(=O)c2ccc(C(=O)O)cc2)nn1	wild-type HIV-1 (HIV-1LAI) in H9 cells (non-permissive)	yes

====

- Tested on: wild-type HIV-1 (HIV-1LAI) in H9 cells (non-permissive)
- Test Description: microbe, parasite or virus in culture
- Type: cell-based
- Condition Notes: Human immunodeficiency virus 1, H9, read-out: IC50, anti-HIV-1 activity; non-permissive H9 cells
pIC50: −log10 of the molar value.
Quick reference: pIC50 of the listed items.
Measurement Name: pIC50

Mol Smiles	Target Of Assay	Measurement Name	Measured
COc1cccc(OC)c1-n1cc(-c2ccccc2Sc2ccc(N)cc2)nn1	wild-type HIV-1 (HIV-1LAI) in H9 cells (non-permissive)	pIC50	5.52 to 6.00
COC(=O)c1ccc(Sc2ccccc2-c2cn(-c3c(OC)cccc3OC)nn2)cc1	wild-type HIV-1 (HIV-1LAI) in H9 cells (non-permissive)	pIC50	6.70
COc1cccc(OC)c1-n1cc(-c2ccccc2Sc2ccc(C(=O)O)cc2)nn1	wild-type HIV-1 (HIV-1LAI) in H9 cells (non-permissive)	pIC50	5.52 to 6.00
COc1ccccc1-n1cc(-c2ccccc2Sc2ccc(C(F)(F)F)cc2)nn1	wild-type HIV-1 (HIV-1LAI) in H9 cells (non-permissive)	pIC50	5.52 to 6.00

====

- Tested on: wild-type HIV-1 (HIV-1LAI) in H9 cells (non-permissive)
- Test Description: microbe, parasite or virus in culture
- Assay type: cell-based
- Condition Notes: Human immunodeficiency virus 1, H9, read-out: Antiviral activity (IC50 μM) H9 cells, Table 5; wild-type HIV-1, non-permissive H9 cells

Compound	Target Of Assay	Value Qualifier	IC50 [µM]
COc1cccc(F)c1-n1cc(-c2ccccc2Sc2ccc(C(F)(F)F)cc2)nn1 [Compound 7dx]	wild-type HIV-1 (HIV-1LAI) in H9 cells (non-permissive)	=	10
COc1cccc(OC)c1-n1cc(-c2ccccc2S(=O)(=O)c2ccc(N)cc2)nn1 [Compound 6ey]	wild-type HIV-1 (HIV-1LAI) in H9 cells (non-permissive)	=	1.5
COC(=O)c1ccc(Sc2ccccc2-c2cn(-c3cccc(OC)c3OC)nn2)cc1 [Compound 3bx]	wild-type HIV-1 (HIV-1LAI) in H9 cells (non-permissive)	=	8
COC(=O)c1ccc(Sc2ccccc2-c2cn(-c3ccccc3OC)nn2)cc1 [Compound 2bx]	wild-type HIV-1 (HIV-1LAI) in H9 cells (non-permissive)	>	50
COc1cccc(F)c1-n1cc(-c2ccccc2Sc2ccc(C(=O)O)cc2)nn1 [Compound 7fx]	wild-type HIV-1 (HIV-1LAI) in H9 cells (non-permissive)	=	4.9
COc1cccc(-n2cc(-c3ccccc3Sc3ccc(C(=O)O)cc3)nn2)c1OC [Compound 3fx]	wild-type HIV-1 (HIV-1LAI) in H9 cells (non-permissive)	=	2.8
COc1cccc(F)c1-n1cc(-c2ccccc2S(=O)(=O)c2ccc(N)cc2)nn1 [Compound 7ey]	wild-type HIV-1 (HIV-1LAI) in H9 cells (non-permissive)	=	15
COc1ccc(-n2cc(-c3ccccc3S(=O)(=O)c3ccc(C(=O)O)cc3)nn2)c(OC)c1 [Compound 4fy]	wild-type HIV-1 (HIV-1LAI) in H9 cells (non-permissive)	>	50
COc1ccc(-n2cc(-c3ccccc3Sc3ccc(C(=O)O)cc3)nn2)c(OC)c1 [Compound 4fx]	wild-type HIV-1 (HIV-1LAI) in H9 cells (non-permissive)	=	7.1
COc1ccc(Sc2ccccc2-c2cn(-c3c(OC)cccc3OC)nn2)cc1 [Compound 6cx]	wild-type HIV-1 (HIV-1LAI) in H9 cells (non-permissive)	>	50
COc1ccccc1-n1cc(-c2ccccc2Sc2ccc(C(=O)O)cc2)nn1 [Compound 2fx]	wild-type HIV-1 (HIV-1LAI) in H9 cells (non-permissive)	=	1
COc1cccc(-n2cc(-c3ccccc3S(=O)(=O)c3ccc(C(=O)O)cc3)nn2)c1OC [Compound 3fy]	wild-type HIV-1 (HIV-1LAI) in H9 cells (non-permissive)	=	1.4
COc1ccccc1-n1cc(-c2ccccc2S(=O)(=O)c2ccc([N+](=O)[O-])cc2)nn1 [Compound 2ay]	wild-type HIV-1 (HIV-1LAI) in H9 cells (non-permissive)	=	13.8
COc1ccc(OC)c(-n2cc(-c3ccccc3Sc3ccc([N+](=O)[O-])cc3)nn2)c1 [Compound 5ax]	wild-type HIV-1 (HIV-1LAI) in H9 cells (non-permissive)	=	0.01
COc1ccc(S(=O)(=O)c2ccccc2-c2cn(-c3ccc(OC)cc3OC)nn2)cc1 [Compound 4cy]	wild-type HIV-1 (HIV-1LAI) in H9 cells (non-permissive)	>	50
COc1ccccc1-n1cc(-c2ccccc2S(=O)(=O)c2ccc(N)cc2)nn1 [Compound 2ey]	wild-type HIV-1 (HIV-1LAI) in H9 cells (non-permissive)	=	0.4
COc1ccc(-n2cc(-c3ccccc3Sc3ccc(N)cc3)nn2)c(OC)c1 [Compound 4ex]	wild-type HIV-1 (HIV-1LAI) in H9 cells (non-permissive)	>	50
COc1ccc(OC)c(-n2cc(-c3ccccc3S(=O)(=O)c3ccc(N)cc3)nn2)c1 [Compound 5ey]	wild-type HIV-1 (HIV-1LAI) in H9 cells (non-permissive)	=	0.6
